These entries and their values trace back to paper PMC11198769.

Molecular target: OR1A1 (Homo sapiens, UniProt Q9P1Q5)
Construct: Lucy tag (N); FLAG (N); Rho tag (N); expressed in transfected cells; host or cells: Flp-In T-REx-293 cells stably expressing RTP1S, Gαolf and Ric8-b
Sequence (Q9P1Q5 1-309): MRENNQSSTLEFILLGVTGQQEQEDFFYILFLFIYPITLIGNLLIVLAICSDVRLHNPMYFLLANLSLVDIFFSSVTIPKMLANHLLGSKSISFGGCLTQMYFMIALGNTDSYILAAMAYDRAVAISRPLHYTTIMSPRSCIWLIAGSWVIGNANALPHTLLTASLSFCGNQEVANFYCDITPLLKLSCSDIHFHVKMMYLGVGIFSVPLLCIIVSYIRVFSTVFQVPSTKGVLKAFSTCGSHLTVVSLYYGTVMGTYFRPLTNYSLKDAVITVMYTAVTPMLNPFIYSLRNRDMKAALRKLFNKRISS
Assay: hOR assay (GloSensor cAMP luciferase), dose-response
Assay type: cell-based
Settings: OR1A1/pHEK (with TAR-Tat system); read-out: EC50 of n-hexanal concentration-response relationship
readout type: EC50 (µM)
One number for each entry, in µM.

// lookup EC50 for `CCCCCC=O`
995

###

biological target: OR1A1 (Homo sapiens, UniProt Q9P1Q5); construct: Lucy tag (N); FLAG (N); Rho tag (N); expressed in transfected cells; host or cells: Flp-In T-REx-293 cells stably expressing RTP1S, Gαolf and Ric8-b; test: hOR assay (GloSensor cAMP luciferase), dose-response; format: cell-based; details: OR1A1 with the TAR-Tat system (OR1A1/pHEK); read-out: EC50 value
readout type: pEC50
One number for each entry, as −log10 of the molar value.

Param item = C=C(C)[C@H]1CC=C(C)C(=O)C1 [(+)-carvone] ; retrieve measured pEC50.
6.04

###

biological target: OR1A1 (Homo sapiens); construct: Lucy tag (N); FLAG (N); Rho tag (N); expressed in transfected cells; host or cells: Flp-In T-REx-293 cells stably expressing RTP1S, Gαolf and Ric8-b; test: hOR assay (GloSensor cAMP luciferase), dose-response; format: cell-based; details: OR1A1 without the TAR-Tat system (OR1A1/pBApo); read-out: EC50 value
readout type: pEC50
Answers are plain numbers, as −log10 of the molar value.

Give the measured pEC50 of C=C(C)[C@H]1CC=C(C)C(=O)C1 [(+)-carvone] .
5.36
